Hi there, I'd appreciate the recorded pKd for every entry that follows.
# MEASUREMENT TARGET: T1, SNTG1, Q9NSN8
# T1 sequence (Q9NSN8 52-150, limits assumed, looked up): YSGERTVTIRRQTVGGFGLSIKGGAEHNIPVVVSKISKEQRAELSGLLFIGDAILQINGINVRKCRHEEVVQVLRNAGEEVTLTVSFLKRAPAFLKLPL
# METHOD: holdup assay
# Design: key: below the threshold = too weak to quantify, mostly under pKd 3.1 to 4
# CONDITIONS USED: plain residues with an end cap or a label only (N-terminal biotin on a linker: ado-ado)
Answers are plain numbers.

> print(dat)
                        binder  reported.result
1   EVEEFPETSV [TRPV3, Q8NET8]             5.53
2  MLSKQSESAI [FLVCR1, Q9Y5Y0]             3.93
3  QSARLWETSI [ADAM22, Q9P0K1]             4.82

Pending binder:
Endpoint output: pKd of PKRSFIESNV [TANC1, Q9C0D5] . Value?
4.95
